biological target: TDP-43 (Homo sapiens, UniProt Q13148 1-414); assay: RNA Bind-n-Seq with designed 260-mer pool; 25 mM Tris-HCl, 150 mM KCl, 3 mM MgCl2, BSA (printed 500 mg/mL), 20 units/mL SUPERase IN; pH not stated; 500 nM RNA pool, 1 h, 4 C; TDP-43 5, 50, 500 nM; high values mean tight binding; conditions: protein: recombinant; tags: SBP (GST cleaved off with PreScission; pGEX-GST-SBP)
Sequence (Q13148 whole entry): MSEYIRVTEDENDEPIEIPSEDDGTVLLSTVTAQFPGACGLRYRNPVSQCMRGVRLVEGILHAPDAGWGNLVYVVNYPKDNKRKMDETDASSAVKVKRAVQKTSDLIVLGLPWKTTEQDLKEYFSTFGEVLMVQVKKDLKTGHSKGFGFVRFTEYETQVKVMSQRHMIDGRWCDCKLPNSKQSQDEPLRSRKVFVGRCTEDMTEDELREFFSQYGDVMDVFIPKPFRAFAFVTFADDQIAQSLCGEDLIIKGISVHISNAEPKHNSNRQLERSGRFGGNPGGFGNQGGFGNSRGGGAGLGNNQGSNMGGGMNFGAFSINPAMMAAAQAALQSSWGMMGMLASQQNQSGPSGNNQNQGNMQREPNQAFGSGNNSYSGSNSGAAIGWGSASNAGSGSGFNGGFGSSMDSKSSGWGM
Over roughly 9,900 sequences, “r (bound/input frequency ratio)” has its median near 0.7; the highest 2% begin near 6.5. For the sample, the highest values were picked, then their nearest neighbours and some sequences at random.
value-type: binding signal

*Q* Please report the recorded binding signal for ENSMUSG00000061578.22|Ksr2|4:9;112:122;211:217;222:226 (ssRNA) RNA: GGGAGUUCUACAGUCCGACGAUCGCUUCGAUAUCCGCAUGCUAACCACACACAUGACGUCACAGAGGCUGUCCACACCUUCGACUUGUACCCCGUUACUCAGGCACGAUCAGGGACCACUCAACUAGGACCAAACUGGGCCAGAGAGGGUCCCAACACACCACACAAGGAGCCACAGACUGAGCACACCACCUCGGACUGUGGAGACCAAGACACAUGCCCAGUGGGCAGACUCAGACUCACACGCUGGACCACACACACCGCAACACACUACACAUGGACAGGGCCAACUGCUAUCCUUCUGCUCUUGCGGUCGCACUAGUGUGGAAUUCUCGGGUGUCAAGG .
*A* 1.84 R (bound/input frequency ratio)
